target.under.test: F protein of human metapneumovirus strain JPS02-76 (type B1), on infectious virus (human metapneumovirus, strain JPS02-76 …, UniProt Q6WB98 19-539)
assay.name: cell-based or functional assay
metric: IC60, neutralizing activity (hMPV infection of LLC-MK2 cells; GraphPad Prism 6)

binder	reading
EV046143 (antibody, human IgG1, kappa, V domains shown) VH: QVQLVQSGAEVQKPGSSVKVSCKTSGDTFNNYALSWVRQAPGQGPEWMGRIIPLVEMANYAQKFQGRVTITADKSTTTIYMELSSLRSEDTAMYYCARDGYQGGFPYFFDSWGQGTLVTVSS VL: EVVLTQSPGTLSLSPGERATLSCRASQSVSNYLAWYQQKPGQAPRLLISAASSRATGIPDRFGGSGSGADFTLTISRLEPEDFAVYYCQQYGFSPGTFGQGTKVEIRR	0.627 µg/mL
EV046116 (antibody, human IgG1, kappa, V domains shown) VH: QVQLQESGPGLVKPSETLSLTCTVSGGSISRDYWSFIRQPAGKGLEWIGRIYHNGDTNYNPSLKSRVTMSQDTSKNQFFLRLRHVTAADTAVYYCAREGSAGTFGQADWGQGTLVIVYS VL: EIVMTQSPATLSVSPGERATLSCRASQSISNNLAWYQQKPGQAPRLLIYGASTRATGIPARFSGGGSGTEFTLTISSLQSEDFAVYYCQQYENWLLYTFGQGTKLEIKR	0.497 µg/mL
EV046150 (antibody, human IgG1, kappa, V domains shown) VH: RVQLVQSGAEVKKPGSSVRVSCKASGGTFSNYSISWVRQVPGQGLEWMGRIIPILPLSSYPQQFQGRVAITADKSSTTAYMELSSLRIEDTAIYYCARDALRPEGGYYYYYFDVWGTGTTVTVSS VL: EIELTQSPGTLSLSPGERATLSCRANQIIGDTSLAWYQQKPGQAPRLLIFGASSRATGIPDRFSGSGFGSDFTLTITSLEPEDFAVYYCQQYGSSPTFGQGTKVEIKR	0.36 µg/mL
EV046136 (antibody, human IgG1, kappa, V domains shown) VH: QVQLVQSGAEMKKPGASVKVSCKASGYTFTDYFIHWVRQAPGQGLEWMGWVNPNSGATNYAQKFQGRVTMTGDTSLSAAYVDLSRLSSDDSAVYYCARDRGLGISSTRNDAFDIWGQGTTVTVSS VL: DIQLTQSPSSLSASVGDRVTITCQPSQGIRNFLNWYQQKPGKAPNLLIYDASNLETGVASRFSGSGSGTHFTLTISSLQPEDIATYFCQQYHSLPLTFGGGTKVEIKR	0.419 µg/mL
